biological target: H723R-pendrin (Homo sapiens, UniProt O43511, H723R); construct: expressed in transfected cells; host or cells: PANC-1; assay: YFP fluorescence quenching assay (Cl−/I− exchange activity of pendrin); assay type: cell-based; details: PANC-1 cells stably expressing human H723R-pendrin and YFP-F46L/H148Q/I152L; compound incubation 20-24 hours; iodide influx
Sequence (O43511 whole entry H723R): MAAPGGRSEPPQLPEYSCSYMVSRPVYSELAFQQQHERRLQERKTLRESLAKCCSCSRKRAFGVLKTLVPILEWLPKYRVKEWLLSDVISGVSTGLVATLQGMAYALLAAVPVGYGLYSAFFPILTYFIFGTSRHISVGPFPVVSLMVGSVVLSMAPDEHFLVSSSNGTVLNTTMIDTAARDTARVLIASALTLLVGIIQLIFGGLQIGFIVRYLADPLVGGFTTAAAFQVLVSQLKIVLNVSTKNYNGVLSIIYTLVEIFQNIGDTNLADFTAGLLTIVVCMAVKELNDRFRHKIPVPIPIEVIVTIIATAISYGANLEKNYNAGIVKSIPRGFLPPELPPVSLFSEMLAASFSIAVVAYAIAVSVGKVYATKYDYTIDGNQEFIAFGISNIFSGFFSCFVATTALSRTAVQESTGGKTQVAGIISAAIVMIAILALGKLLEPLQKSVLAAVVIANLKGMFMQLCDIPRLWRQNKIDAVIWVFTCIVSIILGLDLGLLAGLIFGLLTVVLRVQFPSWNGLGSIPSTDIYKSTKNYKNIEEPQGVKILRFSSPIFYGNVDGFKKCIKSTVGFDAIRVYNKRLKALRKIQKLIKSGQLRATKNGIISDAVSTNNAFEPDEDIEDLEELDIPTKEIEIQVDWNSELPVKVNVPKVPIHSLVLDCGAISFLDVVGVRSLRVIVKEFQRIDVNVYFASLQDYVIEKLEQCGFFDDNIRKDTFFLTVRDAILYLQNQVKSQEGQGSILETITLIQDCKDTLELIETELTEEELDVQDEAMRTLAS

{"columns": ["molecule", "EC50"],
 "data": [
  ["COc1ccc(-c2cncc(C3=C(N)N(c4ccccc4Cl)CC3=O)c2)cc1OC", "> 10 µM"],
  ["NC1=C(c2nccc(-c3ccc(O)c(O)c3)n2)C(=O)CN1CC1CCNC1 (stereo not drawn)", "> 10 µM"],
  ["COc1cc(-c2cncc(C3=C(N)N(CC4CCOC4)CC3=O)c2)ccc1O (stereo not drawn)", "> 10 µM"],
  ["NC1=C(c2cncc(-c3ccc(O)c(OC(F)(F)F)c3)n2)C(=O)CN1c1ccccc1Cl", "5 to 10 µM"],
  ["NC1=C(c2cncc(-c3ccc4ocnc4c3)n2)C(=O)CN1c1ccccc1Cl", "> 10 µM"],
  ["NC1=C(c2cncc(-c3ccc(O)c(O)c3)n2)C(=O)CN1c1ncncc1Cl", "> 10 µM"],
  ["COc1ccc(-c2ccnc(C3=C(N)N(CC4CCNC4)CC3=O)n2)cc1OC (stereo not drawn)", "> 10 µM"],
  ["COc1ccc(-c2cncc(C3=C(N)N(CCC(F)(F)F)CC3=O)n2)cc1OC", "> 10 µM"],
  ["NC1=C(c2cncc(-c3ccc(O)c(O)c3)n2)C(=O)CN1CC1CCNC1 (stereo not drawn)", "> 10 µM"],
  ["COc1ccc(-c2cccc(C3=C(N)N(CC4CCOC4)CC3=O)n2)cc1OC (stereo not drawn)", "5 to 10 µM"],
  ["NC1=C(c2ccnc(-c3ccc(O)c(O)c3)n2)C(=O)CN1CC1CCCC1", "< 5 µM"],
  ["NC1=C(c2cccc(-c3ccc(O)c(O)c3)n2)C(=O)CN1c1ccccc1F", "5 to 10 µM"],
  ["COc1ccc(-c2cc(C3=C(N)N(c4ccccc4F)CC3=O)ccn2)cc1OC", "> 10 µM"],
  ["COc1ccc(-c2ccc(C3=C(N)N(c4ccccc4Cl)CC3=O)cn2)cc1OC", "> 10 µM"],
  ["COc1ccc(-c2cncc(C3=C(N)N(c4ccccc4Cl)CC3=O)n2)cc1OC", "5 to 10 µM"],
  ["COC1CC(Oc2cc(-c3cncc(C4=C(N)N(CC5CCCC5)CC4=O)n3)ccc2O)C1 (stereo not drawn)", "> 10 µM"],
  ["NC1=C(c2cncc(-c3ccc(O)c(O)c3)n2)C(=O)CN1CC1CCC1", "< 5 µM"],
  ["COc1cc(-c2nccc(C3=C(N)N(CC4CCCC4)CC3=O)n2)ccc1O", "< 5 µM"]
]}
